Reference for the values: patent US12642270B2

TEST METHOD NOTES: Log P by HPLC on reversed phase columns (EEC directive 79/831 Annex V.A8)
Format: physicochemical
EXPERIMENTAL CONDITIONS: method marked [a]
ASSAY METRIC: LogP

Below are worked cases with known answers.
CCOC(=O)C(NC(=O)c1sc(Cl)c(Cl)c1C#N)C(=O)OCC
3.40^[a]
CCOC(=O)C1(NC(=O)c2sc(Br)c(Br)c2Cl)CSC1
3.97^[a]
Cc1c(C(=O)NC2(C(=O)O)CC2)sc(C#N)c1Cl
1.79^[a]
CCOC(=O)[C@H](CCSC)NC(=O)c1sc(Cl)c(Br)c1C
4.02^[a]
O=C(NC1(C(=O)O)CC1)c1sc(Cl)c(Br)c1Cl
2.41^[a]
O=C(NC(C(=O)O)C1CC1)c1sc(Br)c(Br)c1Cl (stereo not drawn)
2.94^[a]
O=C(NC(C(=O)NC(C(=O)O)C1CC1)C1CC1)c1cc(Br)c(Cl)s1 (stereo not drawn)
2.49^[a]
CCOC(=O)C(NC(=O)c1sc(Cl)c(Cl)c1F)C(C)C (stereo not drawn)
4.37^[a]
O=C(NC1(C(=O)O)CC1)c1sc(Br)c(Cl)c1F
2.14^[a]
CCOC(=O)C(C#N)NC(=O)c1sc(C#N)c(Br)c1C (stereo not drawn)
2.66^[a]

INPUT: Please look up its LogP: "CCOC(=O)C1(NC(=O)c2sc(F)c(Br)c2Br)CC1"
OUTPUT: 3.17^[a]

INPUT: Param item: "COC(=O)C1(NC(=O)c2sc(Br)c(Br)c2C(F)F)CC1"
OUTPUT: 2.86^[a]

###

TEST METHOD NOTES: Log P by HPLC on reversed phase columns (EEC directive 79/831 Annex V.A8)
Format: physicochemical
EXPERIMENTAL CONDITIONS: method [a]; compounds of formula (I), Table 1.1
Attribute: LogP

Below are worked cases with known answers.
CCOC(=O)CCNC(=O)c1sc(Br)c(Cl)c1C
3.11^[a]
COC(=O)C(CC(F)F)NC(=O)c1sc(Cl)c(Cl)c1Br (stereo not drawn)
3.60^[a]
CCOC(=O)CNC(=O)c1sc(Br)c(Cl)c1C
2.94^[a]
CCOC(=O)C1(NC(=O)c2sc(Br)c(Cl)c2C)COC1
2.84^[a]
CCOC(=O)C1(NC(=O)c2sc(Cl)c(Br)c2C)COC1
2.88^[a]

INPUT: Please look up its LogP: CCOC(=O)C(COC)NC(=O)c1sc(Cl)c(Br)c1C (stereo not drawn)
OUTPUT: 3.44^[a]

INPUT: Param item: COC(=O)C(CC(F)F)NC(=O)c1sc(Br)c(Cl)c1C (stereo not drawn)
OUTPUT: 3.29^[a]

###

TEST METHOD NOTES: Log P by HPLC on reversed phase columns (EEC directive 79/831 Annex V.A8)
Assay type: physicochemical
EXPERIMENTAL CONDITIONS: method [a]
Attribute: LogP

INPUT: Please look up its LogP: Cc1c(C(=O)NC(C(=O)O)C2CC2)sc(Br)c1Cl (centres unmarked)
OUTPUT: 2.64^[a]

INPUT: Param item: NC(=O)CC(NC(=O)c1sc(Br)c(Br)c1F)C(=O)O (centres unmarked)
OUTPUT: 1.66^[a]

INPUT: Param item: "COC(=O)C1(NC(=O)c2sc(Br)c(C(F)F)c2Br)CC1"
OUTPUT: 2.70^[a]

INPUT: Param item: CCOC(=O)C(CO)NC(=O)c1sc(Br)c(Cl)c1Br (centres unmarked)
OUTPUT: 2.89^[a]

INPUT: Param item: "CCOC(=O)C1(NC(=O)c2sc(Cl)c(Cl)c2C#N)CC1"
OUTPUT: 2.72^[a]

INPUT: Param item: "CCCOC(=O)C1(NC(=O)c2sc(Br)c(Br)c2Cl)CCC1"
OUTPUT: 4.78^[a]

INPUT: Param item: "NC(=S)CNC(=O)c1sc(Br)c(Br)c1F"
OUTPUT: 2.25^[a]

INPUT: Param item: "Cc1c(C(=O)NCC(N)=O)sc(C#N)c1Cl"
OUTPUT: 1.34^[a]

INPUT: Param item: "O=C(NC1(C(=O)OC2CCC2)CCC1)c1sc(Br)c(Br)c1Cl"
OUTPUT: 4.97^[a]

INPUT: Param item: "CC(C)OC(=O)C1(NC(=O)c2sc(Cl)c(Cl)c2Br)CCC1"
OUTPUT: 4.69^[a]

INPUT: Param item: "NC(=O)C1(NC(=O)c2sc(Br)c(Br)c2F)CC1"
OUTPUT: 1.94^[a]
